Catalogue of compounds with associated inhibition at 50 µM
# Tested on: TNF-α
# method summary: In vitro efficacy in semi-activated LX2 cells, qPCR: TNF-α
# Assay type: cell-based
# reported conditions: Homo sapiens, LX-2, 48 hours, Q-PCR, read-out: TNF-α mRNA inhibition rate
Where a SMILES comes first, the peptide text is derived from it.

Examples from the recorded data:
compound=COC(=O)[C@@H](N)CC(=O)OC(C)(C)C property_measured="inhibition at 50 µM" reported_measurement="1 to 10%"
compound=N[C@@H](CC(=O)NCC(=O)O)C(=O)O property_measured="inhibition at 50 µM" reported_measurement="1 to 10%"
compound=COC(=O)C[C@H](N)C(=O)O property_measured="inhibition at 50 µM" reported_measurement="10 to 25%"
compound=CN(C)C(=O)N[C@@H](CC(=O)O)C(=O)O property_measured="inhibition at 50 µM" reported_measurement="1 to 10%"
compound="COC(=O)[C@H](Cc1ccccc1)NC(=O)[C@@H](N)CC(=O)O [Compound 48] (HELM PEPTIDE1{D.F.[CO[*:1]]}$$$$V2.0)" property_measured="inhibition at 50 µM" reported_measurement="1 to 10%"

Next item in the queue.
Give inhibition at 50 µM only, for CC(C)OC(=O)C[C@H](N)C(=O)O , using TNF-α data.
1 to 10%

----------
Catalogue of compounds with associated inhibition at 50 µM
# System: TNF-α
# method summary: In vitro efficacy in semi-activated LX2 cells, qPCR: TNF-α
# Assay type: cell-based
# reported conditions: Homo sapiens, LX-2, 48 hours, Q-PCR, read-out: TNF-α mRNA inhibition rate
Structures can show the parent of a compound that is named as a salt.

Examples from the recorded data:
compound=N[C@@H](CC(=O)OCc1ccccc1)C(=O)O reported_measurement="1 to 10%"
compound=N[C@@H](CCC(=O)O)C(=O)O reported_measurement="10 to 25%"
compound=CC(C)(C)OC(=O)N[C@@H](CC(=O)O)C(=O)O reported_measurement="1 to 10%"
compound="COC(=O)C[C@H](N)C(=O)OCOC(=O)[C@@H](N)CC(=O)OC [Compound 54, hydrochloride]" reported_measurement="1 to 10%"
compound=COC(=O)[C@H](CC(=O)O)NC(=O)OC(C)(C)C reported_measurement="10 to 25%"
compound=C=CCOC(=O)C[C@H](NC(=O)OCC1c2ccccc2-c2ccccc21)C(=O)O reported_measurement="1 to 10%"
compound=O=C(O)C[C@H](NC(=O)OCc1ccccc1)C(=O)O reported_measurement="10 to 25%"
compound=CC(C)(C)OC(=O)C[C@H](NC(=O)OCc1ccccc1)C(=O)O reported_measurement="1 to 10%"

For the compound CC(C)(C)OC(=O)[C@@H](N)CC(=O)O , report inhibition at 50 µM.
1 to 10%

For the compound C=CCOC(=O)[C@H](CC(=O)O)NC(=O)OCC1c2ccccc2-c2ccccc21 , report inhibition at 50 µM.
10 to 25%

----------
Catalogue of compounds with associated Cmax
# method summary: Pharmacokinetic testing in rats
# Assay type: in vivo, SD rats
# reported conditions: male, SD, rat, plasma, PO 20 mg/kg, read-out: Cmax
I only need the number, in ng/mL, no unit after it.

compound="N[C@@H](CC(=O)O)C(=O)O [Aspartic acid, aspartic acid]" reported_measurement=1960

Next item in the queue.
For the compound COC(=O)C[C@H](N)C(=O)O [Compound 6] , report Cmax.
14800
